- EXPERIMENTAL_SYSTEM: Recombinant STAT3 protein (STAT3 (G127-I722)) (Homo sapiens, UniProt P40763)
- Construct: Recombinant STAT3 protein (STAT3 (G127-I722))
- Sequence (P40763 127-722): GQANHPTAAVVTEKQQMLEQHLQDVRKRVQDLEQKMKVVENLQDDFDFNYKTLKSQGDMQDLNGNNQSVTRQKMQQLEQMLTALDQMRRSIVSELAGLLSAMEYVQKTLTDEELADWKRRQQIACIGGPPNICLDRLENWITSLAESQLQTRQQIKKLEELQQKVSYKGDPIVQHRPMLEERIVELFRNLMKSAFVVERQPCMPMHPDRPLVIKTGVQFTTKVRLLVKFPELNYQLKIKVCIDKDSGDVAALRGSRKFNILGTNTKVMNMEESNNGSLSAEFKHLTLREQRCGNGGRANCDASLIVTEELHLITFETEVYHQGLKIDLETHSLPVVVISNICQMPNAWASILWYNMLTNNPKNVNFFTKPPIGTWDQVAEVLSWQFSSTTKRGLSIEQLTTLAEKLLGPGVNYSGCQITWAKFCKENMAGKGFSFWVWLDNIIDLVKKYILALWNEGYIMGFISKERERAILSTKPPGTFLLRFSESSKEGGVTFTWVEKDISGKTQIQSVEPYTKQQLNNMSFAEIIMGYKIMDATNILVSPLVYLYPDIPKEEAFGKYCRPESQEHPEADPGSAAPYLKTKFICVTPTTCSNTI
- ASSAY_EXPLANATION: STAT3 Fluorescence Polarization (FP) Assay
- Format: binding
- EXPERIMENTAL_PARAMETERS: STAT3 (G127-I722) 25 nM, probe 5-FAM-GpYLPQTV-NH2 2 nM, 45-minute incubation; read-out: STAT3 (FP assay IC50 class)
ASSAY_READOUT: IC50

Below: 2 compounds and their reported IC50.
COMPOUND	EXPERIMENTAL_SYSTEM	IC50
O=C(N[C@H]1CCC[C@H]2CC[C@@H](C(=O)N3CC(c4cncc(Cl)c4F)C3)N2C1=O)c1cc2cc(C(F)P(=O)(O)O)ccc2s1 (stereo partly drawn)	Recombinant STAT3 protein (STAT3 (G127-I722)) (Homo sapiens, UniProt P40763)	< 100 nM
O=C(N[C@H]1CCCC[C@H]2CC[C@@H](C(=O)N3CC(OCC(F)F)(c4cccnc4)C3)N2C1=O)c1cc2cc(C(F)P(=O)(O)O)ccc2s1 (stereo partly drawn)	Recombinant STAT3 protein (STAT3 (G127-I722)) (Homo sapiens, UniProt P40763)	< 100 nM

Now let's try a different one.
IC50 reading for COC1(CS(C)(=N)=O)CN(C(=O)[C@@H]2CC[C@@H]3CCC[C@H](NC(=O)c4cc5cc(C(F)(F)P(=O)(O)O)ccc5s4)C(=O)N32)C1 (stereo partly drawn) : 100 to 1000 nM
